# System: giant foxtail (Setaria faberii)
# protocol.text: Test B pre-/postemergence plant response
# Type: in vivo
# assay.setup: 250 g ai/ha, Preemergence, 0 to 100 scale
Entries annotated with measured Plant response rating, Foxtail, Giant
Hey, just send me the number, nothing else.

Some compounds with known Plant response rating, Foxtail, Giant results, for comparison:
>  <compound>
O=C1CCCC(O)=C1C(=O)c1cnc(-c2ccccc2)n(CC2CCCO2)c1=O (stereo not drawn) [Compound 59]

>  <assayed.system>
giant foxtail (Setaria faberii)

>  <parameter.measured>
Plant response rating, Foxtail, Giant

>  <result.number>
75

$$$$
>  <compound>
Cc1ccccc1-n1c(-c2cccc(Cl)c2)ncc(C(=O)C2=C(O)CCCC2=O)c1=O [Compound 36]

>  <assayed.system>
giant foxtail (Setaria faberii)

>  <parameter.measured>
Plant response rating, Foxtail, Giant

>  <result.number>
80

$$$$
>  <compound>
CCCCc1ncc(C(=O)C2=C(O)CCCC2=O)c(=O)n1-c1ccc(C)cc1 [Compound 67]

>  <assayed.system>
giant foxtail (Setaria faberii)

>  <parameter.measured>
Plant response rating, Foxtail, Giant

>  <result.number>
65

$$$$
>  <compound>
O=C1CCCC(O)=C1C(=O)c1cnc(-c2ccccc2)n(-c2ccccc2F)c1=O [Compound 26]

>  <assayed.system>
giant foxtail (Setaria faberii)

>  <parameter.measured>
Plant response rating, Foxtail, Giant

>  <result.number>
90

$$$$
>  <compound>
Cn1c(-c2ccccc2)ncc(C(=O)C2=C(O)CCCC2=O)c1=O [Compound 55]

>  <assayed.system>
giant foxtail (Setaria faberii)

>  <parameter.measured>
Plant response rating, Foxtail, Giant

>  <result.number>
10

$$$$

Now for another entry.
Suppose we examine the compound CCCc1ncc(C(=O)C2=C(O)CCCC2=O)c(=O)n1-c1ccccc1C [Compound 73] ; what Plant response rating, Foxtail, Giant value has been reported?
80

====

# System: chickweed (Stellaria media)
# protocol.text: Test B postemergence plant response
# Type: in vivo
# assay.setup: Postemergence, 62 g ai/ha; scale 0 (no effect) to 100 (complete control); 13 to 15 days
parameter.measured: Plant response rating, Chickweed
Hey, just send me the number, nothing else.

Some molecules with known Plant response rating, Chickweed results, for comparison:
>  <molecule>
O=C1CCCC(O)=C1C(=O)c1cnc(-c2cccc(Cl)c2)n(-c2ccc(Cl)cc2)c1=O

>  <Plant response rating, Chickweed>
98

$$$$
>  <molecule>
Cc1cccc(Cl)c1-n1c(-c2ccccc2)ncc(C(=O)C2=C(O)CCCC2=O)c1=O

>  <Plant response rating, Chickweed>
95

$$$$
>  <molecule>
O=C1CCCC(O)=C1C(=O)c1cnc(-c2ccccc2)n(-c2cccc(Br)c2)c1=O

>  <Plant response rating, Chickweed>
90

$$$$

Now for another entry.
Suppose we examine the molecule O=C1CCCC(O)=C1C(=O)c1cnc(-c2ccccc2)n(CC2CCCO2)c1=O (stereo not shown) ; what Plant response rating, Chickweed value has been reported?
98

====

# System: pigweed (Amaranthus retroflexus)
# protocol.text: Test A pre-/postemergence plant response
# Assay type: in vivo
# assay.setup: Preemergence, 500 g ai/ha; visual injury, 0 to 100 scale (0 no effect, 100 complete control), approx. ten days
parameter.measured: Plant response rating, Pigweed
Hey, just send me the number, nothing else.

>  <structure.as.smiles>
CCCc1ncc(C(=O)C2=C(O)CCCC2=O)c(=O)n1Cc1ccc(OC)c(OC)c1

>  <Plant response rating, Pigweed>
100

$$$$
>  <structure.as.smiles>
CCCn1c(-c2ccc3ccccc3c2)ncc(C(=O)C2=C(O)CCCC2=O)c1=O

>  <Plant response rating, Pigweed>
0

$$$$
>  <structure.as.smiles>
CCCCn1c(-c2cccc(C)c2)ncc(C(=O)C2=C(O)CCCC2=O)c1=O

>  <Plant response rating, Pigweed>
100

$$$$

Now for another entry.
Suppose we examine the molecule CCCc1ncc(C(=O)C2=C(O)CCCC2=O)c(=O)n1Cc1cccc(OC)c1 ; what Plant response rating, Pigweed value has been reported?
90
